// reported melting point per item

Example entries and their recorded answers appear below.
CCOC(=O)Cc1c(-c2ccc(Cl)cc2)nn2cccnc12; 221 to 225 °C
COc1cccc(C2(C(C)(C)O)CCN(C)CC2)c1OC; 97 °C
COC(=O)c1cccc(-c2nc(COc3ccc(COc4nn(-c5ccccc5)cc4/C=C/c4nc(N5CCOCC5)sc4C)cc3OC)c(C)o2)c1; 183 to 184 °C
COc1ccc(C(C)CN2C=CC=C3C2=Nc2cc(OC)ccc2S(=O)(=O)N3C)cc1 (stereo unspecified); 128 to 131 °C
N#Cc1ccc(NC(=S)NCc2cccnc2)cc1; 181 °C
N#Cc1c(N2CCCCC2)cc(-c2cccs2)c2c1-c1ccccc1C2; 152 to 154 °C
CCN(CC)CCOc1ccc(C2c3cc(OC)ccc3-c3ccc4ccccc4c32)cc1 (stereo unspecified); 109 to 115 °C
CC(C)(C)C(=O)Oc1ccc(N=Nc2ccc(OC(=O)C(C)(C)C)cc2)cc1; 185 to 188 °C

Supply measured melting point of COc1ccc(S(=O)(=O)N(CC(=O)NO)Cc2ccccc2)cc1 in your reply.
112 to 114 °C

Supply measured melting point of COc1ccc2c(c1)C(=O)c1nc3ccccc3c(=O)n1-2 in your reply.
268 to 269 °C

Supply measured melting point of O=C(Nc1ccc(-c2ncc(-c3ccc(NC(=O)C4CCCCCC4)cc3)[nH]2)cc1)c1cccnc1 in your reply.
326 to 328 °C

Supply measured melting point of O=[N+]([O-])c1ccc2c(c1)CS(=O)(=O)N2CCF in your reply.
142 to 144 °C

Supply measured melting point of CCC1(CC)Nc2ccccc2-c2c([N+](=O)[O-])cnn21 in your reply.
132 to 134 °C

Supply measured melting point of Cc1c(-c2ccccc2)oc2c(C(=O)N(C)CCO)cccc2c1=O in your reply.
128 to 130 °C

Supply measured melting point of COCC1CN(c2ccc(C3CCC(O)CC3)cc2)C(=O)O1 (racemic) in your reply.
109 to 110 °C

Supply measured melting point of O=S(=O)(c1ccccc1)c1c[nH]c2ccc(N3CCN(Cc4ccccc4)CC3)nc12 in your reply.
238 to 239 °C

Supply measured melting point of O=C(O)Cc1csc(NC(=O)C(Oc2ccc(F)cc2)c2ccc(S(=O)(=O)C3CC3)cc2)n1 (stereo unspecified) in your reply.
72 to 73 °C

Supply measured melting point of CCCCCCCCCCC1COC(=O)N1 (stereo unspecified) in your reply.
31.5 to 32.5 °C

Supply measured melting point of Cc1ccc(-c2nc3ccc(C)cn3c2CC(=O)O)cc1 in your reply.
228 to 230 °C

Supply measured melting point of O=C(C=Cc1ccccc1)NNC(=O)c1ccc(O)cc1 in your reply.
263 to 264 °C

Supply measured melting point of CCNCC1CCN(c2c(F)cc3c(=O)c(C(=O)O)cn(-c4ccc(F)cc4)c3c2F)C1 (stereo unspecified) in your reply.
249 to 251 °C

###

Reported endpoint: melting point

Example entries and their recorded answers appear below.
CCOc1cc(C2c3cccc(C4CC4C(N)=O)c3C(=O)N2CCS(C)(=O)=O)ccc1O (stereo not drawn); 296 °C
COc1ccc(N2CCN(S(=O)(=O)[C@H](C)[C@](O)(Cn3cncn3)c3ccc(F)cc3F)CC2)cc1; 190 to 191 °C

Supply measured melting point of COC(=O)CCCc1cc2nc(Cl)ccc2n1S(=O)(=O)c1cccc2nsnc12 in your reply.
112 °C

###

// reported melting point per item

Example entries and their recorded answers appear below.
COc1ccc(Cl)c(Oc2c(C)nc(N3CCOCC3)nc2O)c1; 252 °C
CCCCCCCCCCCCCCCCCCOc1cc(N)cc(N(CC(=O)O)CC(=O)O)c1; 185 to 195 °C
COc1cc2cc(C(=O)O)c(C(=O)O)nc2cc1OC; 264 to 266 °C

Supply measured melting point of COc1cc2ccc(CC(=O)O)cc2cc1OC in your reply.
115 to 117 °C

Supply measured melting point of O=c1c(Cc2ccncc2)cc2cccnc2n1-c1cccc([N+](=O)[O-])c1 in your reply.
230 °C

Supply measured melting point of CCC(Oc1ccccc1F)C(=O)OC1CC(O)C=C2C=CC(C)C(CCC3CC(O)CC(=O)O3)C21 (mixture of isomers) in your reply.
136 to 138 °C

Supply measured melting point of NC(=O)c1c(F)ccc(OCc2nc3cc(Br)ccc3s2)c1F in your reply.
244 to 246 °C

Supply measured melting point of CC(C)c1ccc(C(=O)Cc2ccsc2)c(C(C)C)c1OS(N)(=O)=O in your reply.
136 to 138 °C

Supply measured melting point of COc1ccc(-c2nnc(N3CCC(O)CC3)nc2-c2ccc(OC)cc2)cc1 in your reply.
105 to 108 °C

###

// reported melting point per item

O=C(O)C(=O)Nc1cc(Cl)cc(NC(=O)C(=O)O)n1; > 320 °C
COC(=O)N1CCC(n2c(=O)[nH]c3cc(Cl)ccc32)C(C)C1 (stereo not given); 196 °C
CC1(C(=O)O)OC2CCCCC2NC1=O (stereo not given); 142 to 144 °C
CCOC(=O)c1nccc2c(C)c3c(cc12)c1cc(O)ccc1n3CC; 260 °C
OC(Cc1ccc(Cl)cc1Cl)(Cn1cnnc1)c1ccc(-c2ccccc2)cc1 (stereo not given); 260 °C
Clc1ccc(-c2n[nH]c(SC3CCNCC3)c2-c2ccncc2)cc1; 211 °C
CC(Oc1ccc(Oc2ncc(C(F)(F)F)cc2F)cc1)C(=O)Nc1ccc(C(F)(F)F)cc1 (stereo not given); 127 to 128 °C
COc1c(C)cc(-c2cc(-c3ccc(S(C)(=O)=O)cc3)c(N3CCOCC3)s2)nc1C; 152 °C

Supply measured melting point of Cn1c(CNc2ccc(Oc3cccc(C(F)(F)F)c3)cc2)nc([N+](=O)[O-])c1C#N in your reply.
124 to 126 °C

Supply measured melting point of N=C(N)NCCc1nccs1 in your reply.
130 to 135 °C

Supply measured melting point of CC12CCC3c4ccc(O)cc4CC(Sc4ccc(C=CC(=O)O)cc4)C3C1CCC2O (stereo not given) in your reply.
215 to 220 °C

Supply measured melting point of Oc1cccc2c1CC(NC1CC1)CO2 (stereo not given) in your reply.
147 to 148 °C

Supply measured melting point of N#CCCCCCCn1c(-c2ccccc2)c(-c2ccccc2)n(-c2ccccc2)c1=O in your reply.
100 to 101 °C

Supply measured melting point of COc1cccc(-c2nn3c(c2C(=O)O)-c2ccccc2CC3)c1 in your reply.
190 °C

Supply measured melting point of O=C=Nc1cc(OC(=O)Oc2cc(N=C=O)c(F)cc2Cl)c(Cl)cc1F in your reply.
108 to 109 °C

Supply measured melting point of CNCC(C)C1(c2ccccc2)C=CCC=C1 (stereo not given) in your reply.
> 250 °C

###

// reported melting point per item
# output: bare number, implied unit °C

CN(C1CCC(O)CC1)S(=O)(=O)c1ccc(Nc2nccc(Nc3ccc(F)cc3)n2)cc1 (centres undefined); 203

Supply measured melting point of CC(C)(C)NCC(O)COc1ccccc1C(=O)Nc1cccc2c1CC(=O)N2 (centres undefined) in your reply.
160

###

// reported melting point per item

CN1C(=O)CCC2(C)c3ccc(S(=O)(=O)c4ccccc4)cc3CCC12 (single isomer, unassigned; (+)); 165 to 167 °C
CCc1ccc(C(Cl)=NOS(C)(=O)=O)cc1; 50 to 52 °C
CC(C)OC(=O)N[C@H](C(=O)N[C@H](CN)C(C)C)C(C)C; 106 °C
COC(=O)C1=C(O)c2sc3ccccc3c2S(=O)(=O)N1; 240 to 242 °C
COCOCC(=O)c1cnc(NC(=O)C(C)(C)C)cn1; 141 to 142 °C
CN(Cc1ccccc1)C(N)=NC#N; 102 to 105 °C

Supply measured melting point of O=C(c1cccs1)c1cnn2c(-c3cccc(NCC=C(c4ccccc4)c4ccccc4)c3)ccnc12 in your reply.
156 to 158 °C

Supply measured melting point of CC#Cc1ccccc1S(N)(=O)=O in your reply.
147 to 149 °C

###

// reported melting point per item

Example entries and their recorded answers appear below.
N#Cc1ncn2c(-c3cccc(C(F)(F)F)c3)ccnc12; 168 to 169 °C
O=C(NNc1ccccc1)C1CSC(c2cccnc2)N1 (stereo not drawn); 155 °C
CSc1n[nH]c(NC(=O)c2ccccc2O)n1; 306 to 309 °C
CC(C)(C)C(=O)Nc1c(F)cc(F)cc1Oc1ccc(C(C)(C)C(=O)O)cc1; 168 to 170 °C

Supply measured melting point of COc1ccc2[nH]c(C(F)(F)F)cc2c1 in your reply.
60 °C

Supply measured melting point of CN(C)CCN1C(=O)c2ccc3[nH]c4ccc(O)cc4c3c2C1=O in your reply.
> 260 °C

Supply measured melting point of CC(=O)N1CCc2ccc(N)cc2C1 in your reply.
98 to 100 °C

Supply measured melting point of CCOC(=O)C(=O)Nc1ccc(Br)c2cccnc12 in your reply.
152 °C

Supply measured melting point of Fc1cc(C(c2cccc(Cl)c2)n2cncn2)c2ccccc2n1 (stereo not drawn) in your reply.
140 °C

Supply measured melting point of CN(C)CC(C)(C)Oc1ccc(Nc2cc(-c3cccc(-n4ncc5cc(C(C)(C)C)cc(F)c5c4=O)c3CO)nn(C)c2=O)nc1 in your reply.
136 to 144 °C

Supply measured melting point of Cc1ccc(-c2ccc(Cl)c(C(=O)NCC34CC5CC(CC(C5)C3)C4)c2)c(C(=O)O)n1 in your reply.
125 to 130 °C

Supply measured melting point of Nc1nc(C(=Cc2cccc3ccccc23)C(=O)O)cs1 in your reply.
220 °C

Supply measured melting point of O=C1CCCN1[C@@H]1c2cc(Cl)ccc2OCC[C@H]1O (relative stereo) in your reply.
186 to 188 °C

Supply measured melting point of Cc1cc2c(-c3ccccc3F)c(C(=O)O)oc(=O)c2cc1C in your reply.
214 to 217 °C

Supply measured melting point of CCOCC1=C(C(=O)OCC)C(c2ccccc2Cl)C(C(=O)OCC)=C(C)N1 (stereo not drawn) in your reply.
115 °C

Supply measured melting point of c1ccc2c(c1)ccn2Nc1ncnc2c1ncn2-n1ccc2ccccc21 in your reply.
196 to 198 °C

Supply measured melting point of Cc1cc(Oc2c(Cl)cc(C(F)(F)F)cc2Cl)nn1C(=O)NCC1CCCO1 (stereo not drawn) in your reply.
74 to 76 °C

Supply measured melting point of CC(C)(C)OC(=O)CCc1ccc(O)cc1CN in your reply.
154 to 157 °C

Supply measured melting point of CN(C)CCc1ccc(O)c2[nH]nnc12 in your reply.
207 to 211 °C

// data source = a melting point compilation (Tetko et al.; mined from patent text by program, amines drawn as free bases though some values may be those of a salt)
